Can you tell me IC50 for the items I'm about to list?
target: GSK3b (GST-full length GSK3b) (Homo sapiens (Human), UniProt P49841); experiment: GSK3b TR-FRET kinase assay; assay type: biochemical; details: 1 nM GSK3b, 2 μM ATP, 30 minute preincubation; geometric mean; read-out: GSK3-B TR-FRET BIOCHEMICAL (TR-FRET); GMean; IC50
Sequence (P49841 whole entry): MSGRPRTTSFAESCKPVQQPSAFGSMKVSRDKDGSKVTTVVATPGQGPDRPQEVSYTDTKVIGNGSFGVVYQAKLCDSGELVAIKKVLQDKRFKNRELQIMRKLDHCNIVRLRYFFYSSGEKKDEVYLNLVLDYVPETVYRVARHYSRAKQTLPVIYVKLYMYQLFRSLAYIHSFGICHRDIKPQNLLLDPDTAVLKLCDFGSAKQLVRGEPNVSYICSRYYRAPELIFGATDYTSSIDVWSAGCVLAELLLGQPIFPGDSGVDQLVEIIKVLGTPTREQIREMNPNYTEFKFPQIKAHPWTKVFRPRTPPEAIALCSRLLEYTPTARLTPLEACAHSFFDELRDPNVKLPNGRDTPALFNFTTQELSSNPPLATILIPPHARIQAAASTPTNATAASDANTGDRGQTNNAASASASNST

The examples below pair each entry with its known result.
{"compound": "CCC1(c2cccc(-c3cn(C)nc3C)c2)C2=C(CC(C)(C)N(C)C2=O)Nc2n[nH]cc21 (centres unmarked) [Compound 949008]", "IC50": "> 5 µM"}
{"compound": "CCC1(c2cccc(N3CCOCC3)c2)C2=C(CC(C)(C)CC2=O)Nc2n[nH]cc21 (centres unmarked)", "IC50": "0.1 to 1 µM"}

State recorded IC50 for all listed compounds.
1. CC[C@]1(c2cccc(C3CC3)c2)C2=C(CC(C)(C)CC2=O)Nc2n[nH]cc21
2. CC[C@@]1(c2ccccc2)C2=C(CC(C)(C)[C@H](F)C2=O)Nc2n[nH]cc21
3. CCC1(c2cccc(C(F)(F)F)c2)C2=C(CCN(c3cnc(OC)nc3)C2=O)Nc2n[nH]c(C)c21 (centres unmarked)

1. ≤ 0.1 µM
2. > 5 µM
3. 0.1 to 1 µM

###

biological target: GSK3α (GST-full length GSK3α) (Homo sapiens (Human)); assay: GSK3α TR-FRET kinase assay; format: biochemical; settings: 1 nM GSK3α, 4 μM ATP, 30 minute preincubation; geometric mean; read-out: GSK3-A TR-FRET BIOCHEMICAL (TR-FRET); GMean; IC50
Sequence (P49840 whole entry): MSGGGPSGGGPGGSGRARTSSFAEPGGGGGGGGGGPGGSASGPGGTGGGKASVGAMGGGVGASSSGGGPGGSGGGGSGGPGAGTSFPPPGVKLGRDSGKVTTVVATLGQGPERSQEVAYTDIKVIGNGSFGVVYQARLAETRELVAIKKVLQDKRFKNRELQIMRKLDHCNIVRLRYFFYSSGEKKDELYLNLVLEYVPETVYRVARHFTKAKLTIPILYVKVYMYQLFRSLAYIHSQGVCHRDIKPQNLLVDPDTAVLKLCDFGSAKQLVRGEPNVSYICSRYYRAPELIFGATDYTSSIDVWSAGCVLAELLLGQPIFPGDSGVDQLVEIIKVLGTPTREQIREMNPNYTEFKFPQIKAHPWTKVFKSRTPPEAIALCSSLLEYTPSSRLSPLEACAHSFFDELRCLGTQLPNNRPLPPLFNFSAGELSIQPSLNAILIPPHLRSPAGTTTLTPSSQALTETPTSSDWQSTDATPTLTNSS
pIC50: −log10 of the molar value.
endpoint_label: pIC50

The examples below pair each entry with its known result.
{"compound": "CCC1(c2cccc(N3CCNCC3)c2)C2=C(CC(C)(C)CC2=O)Nc2n[nH]cc21 (stereo not drawn)", "pIC50": "< 5.78"}
{"compound": "CCC1(c2cccc(CN(C)C(=O)C(C)C)c2)C2=C(CC(C)(C)CC2=O)Nc2n[nH]cc21 (stereo not drawn)", "pIC50": "6.00 to 7.00"}
{"compound": "CC[C@@]1(c2cccc(-c3ccnc4ccc(OC)cc34)c2)C2=C(CC(C)(C)NC2=O)Nc2n[nH]cc21", "pIC50": "< 5.30"}

State recorded pIC50 for all listed compounds.
1. CC[C@]1(c2ccccc2)C2=C(CC3(CC3)CC2=O)Nc2n[nH]cc21
2. CCC1(c2cccc(-c3cncn3C)c2)C2=C(CC(C)(C)NC2=O)Nc2n[nH]c(C(F)(F)F)c21 (stereo not drawn) [Compound 949010]
3. CCC1(c2cccc(-c3ccnc(C)c3C)c2)C2=C(CC(C)(C)NC2=O)Nc2n[nH]c(C)c21 (stereo not drawn) [Compound 948187]
4. CCC1(c2cccc(-c3ccnc4c3CCC4)c2)C2=C(CC(C)(C)NC2=O)Nc2n[nH]cc21 (stereo not drawn) [Compound 947676]
5. CC[C@]1(c2ccccc2)C2=C(C[C@H](C(F)(F)F)CC2=O)Nc2n[nH]cc21

["< 5.30", "≥ 7.00", "≥ 7.00", "≥ 7.00", "6.00 to 7.00"]

###

target: GSK3α (GST-full length GSK3α) (Homo sapiens (Human)); experiment: GSK3α TR-FRET kinase assay; type: biochemical; conditions: 1 nM GSK3α, 4 μM ATP, 30 minute preincubation; geometric mean; read-out: GSK3-A TR-FRET BIOCHEMICAL (TR-FRET); GMean; IC50
pIC50: −log10 of the molar value.
Can you tell me pIC50 for the items I'm about to list?

{"compound": "CCC1(c2cccc(C(F)(F)F)c2)C2=C(CC(C)CC2=O)Nc2n[nH]cc21 (stereo not shown) [Compound 810453]", "target_under_test": "GSK3α (GST-full length GSK3α) (Homo sapiens (Human))", "endpoint_label": "pIC50", "observed_measurement": "< 5.30"}
{"compound": "CC[C@]1(c2cccc(-c3ccnn3C)c2)C2=C(CC3(CCCC3)NC2=O)Nc2n[nH]cc21 [Compound 948018]", "target_under_test": "GSK3α (GST-full length GSK3α) (Homo sapiens (Human))", "endpoint_label": "pIC50", "observed_measurement": "≥ 7.00"}
{"compound": "CC[C@@]1(c2ccccc2)C2=C(C[C@H](C)CC2=O)Nc2n[nH]cc21 [Compound 789009]", "target_under_test": "GSK3α (GST-full length GSK3α) (Homo sapiens (Human))", "endpoint_label": "pIC50", "observed_measurement": "< 5.30"}

Okay, next one:
Reported pIC50, compound CC[C@@]1(c2cccc(-c3ccnc4cc(Cl)ccc34)c2)C2=C(CC(C)(C)NC2=O)Nc2n[nH]cc21 [Compound 948362] : ____
< 5.30
